# credit: ChEMBL document CHEMBL5038617

- Test system: Bacteria
- assay-overview: Inhibition of bacterial Metallo-beta-lactamase IMP-1 (unknown origin) assessed as substrate hydrolysis at 100 uM using meropenem as substrate by UV-visible spectrometry analysis
Catalogue of inhibition values
quantity-kind: inhibition (%)

• S=c1[nH]nc(-c2ccc(OCc3ccccc3)cc2)n1CCSCc1ccccc1 = 60
• S=c1[nH]nc(-c2ccccc2)n1CCSc1nc2ccccc2s1 = 47
• O=[N+]([O-])c1ccccc1CSCCn1c(-c2ccccc2)n[nH]c1=S = 72
• COc1ccc(O)c(-c2n[nH]c(=S)n2CCSCc2ccccc2)c1 = 63
• S=c1[nH]nc(-c2ccccc2)n1CCOCc1ccccc1 = 42
